# EC50 per entry
Biological target: UniProt P43220
Experiment: GLP-1R agonist cAMP stimulation assay (HEK293/GLP1R/CRE-LUC cells, Cisbio cAMP dynamic 2 kit)
Conditions: HEK293/CRE-Luc cell line stably expressing the GLP-1 Receptor; 1000 cells/well; 30 min at 37° C.; 0.5 mM IBMX, 0.1% BSA; read-out: GLP1R cAMP Stimulation DR: EC50
Report only the number, with the unit nM understood.

Below, each entry is followed by its recorded EC50 result.
Molecule	Reported
O=C(O)CCc1cnc(CN2CCC(c3cccc(OCc4ccc(Cl)cc4F)n3)CC2)n1CC1CCC1	4.4
CC1(c2ccc(Cl)cc2F)Oc2cccc(C3CCN(Cc4ncc(/C=C/C(=O)O)n4C[C@H]4CCCO4)CC3)c2O1 (stereo partly drawn)	0.12

Problem: Look up and report measured EC50 (UniProt P43220) for the following molecule: C/C(=C\c1cnc(CN2CCC(c3cccc4c3OC(c3ccc(Cl)cc3F)O4)CC2)n1C[C@@H]1CCO1)C(=O)O (stereo partly drawn) [Compound 132a]
Solution: 1.6

* * *

Target: GLP-1 Receptor (Homo sapiens)
Sequence (P43220 24-463, species assumed): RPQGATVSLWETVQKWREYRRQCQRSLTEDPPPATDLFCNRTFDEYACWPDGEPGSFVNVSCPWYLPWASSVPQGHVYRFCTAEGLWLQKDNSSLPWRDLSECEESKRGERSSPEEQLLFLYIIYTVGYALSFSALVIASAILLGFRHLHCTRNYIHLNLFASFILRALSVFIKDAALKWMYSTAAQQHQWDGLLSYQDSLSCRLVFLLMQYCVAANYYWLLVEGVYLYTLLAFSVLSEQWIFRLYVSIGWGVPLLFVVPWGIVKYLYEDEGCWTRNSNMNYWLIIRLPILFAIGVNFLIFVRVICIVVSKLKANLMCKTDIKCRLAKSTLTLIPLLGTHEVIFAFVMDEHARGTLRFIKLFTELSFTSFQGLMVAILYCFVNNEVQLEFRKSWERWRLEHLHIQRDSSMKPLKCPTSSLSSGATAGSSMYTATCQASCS
Assay: GLP-1R agonist cAMP stimulation assay (HEK293/GLP1R/CRE-LUC cells, Cisbio cAMP dynamic 2 kit);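 further: compounds tested in half-log serial dilution, cAMP detected with cAMP-d2 and anti-cAMP cryptate antibody reagents after 1 h at room temperature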
Conditions: HEK293/CRE-Luc cell line stably expressing the GLP-1 Receptor; 1000 cells/well; 30 min at 37° C.; 0.5 mM IBMX, 0.1% BSA; read-out: GLP1R cAMP Stimulation DR: EC50
Measured Quantity: pEC50
Quick note: pEC50 means taking -log10 of the concentration in moles per liter.

Below, each entry is followed by its recorded pEC50 result.
Compound	Reported
C[C@@]1(c2ccc(Cl)cc2F)Oc2cccc(C3CCN(Cc4ncc(/C=C/C(=O)O)n4C[C@@H]4CCO4)CC3)c2O1 [Compound 135b]	7.82
COc1cccc(Cn2c(CCC(=O)O)cnc2CN2CCC(c3cccc4c3OC(C)(c3ccc(Cl)cc3F)O4)CC2)c1 (centres unmarked) [Compound 243]	9.06
C/C(=C\c1cnc(CN2CCC(c3cccc4c3O[C@@H](c3ccc(Cl)cc3)O4)CC2)n1C[C@@H]1CCO1)C(=O)O [Compound 133a]	8.27
COCCn1c(/C(F)=C/C(=O)O)cnc1CN1CCC(c2cccc(OCc3ccc(Cl)cc3F)n2)CC1 [Compound 221]	9.25
Cc1cc(CCC(=O)O)cnc1CN1CCC(c2cccc(OCc3ccc(Cl)cc3F)n2)CC1 [Compound 117]	5.48
CC1(c2ccc(Cl)cc2F)Oc2cccc(C3CCN(Cc4ncc(/C=C/C(=O)O)n4CCN4CCOC4=O)CC3)c2O1 (centres unmarked) [Compound 200]	9.66
CC1(c2ccc(Cl)cc2F)Oc2cccc(C3CCN(Cc4ncc(/C=C/C(=O)O)n4CCOC4CC4)CC3)c2O1 (centres unmarked) [Compound 201]	10.47
C[C@@H](Cn1c(/C=C/C(=O)O)cnc1CN1CCC(c2cccc3c2O[C@@](C)(c2ccc(Cl)cc2F)O3)CC1)OC1CC1 [Compound 170a]	8.60

Problem: Look up and report measured pEC50 (GLP-1 Receptor (Homo sapiens)) for the following compound: CC1(c2ccc(Cl)cc2F)Oc2cccc(C3CCN(Cc4ncc(/C=C/C(=O)O)n4Cc4ncco4)CC3)c2O1 (centres unmarked) [Compound 183]
Solution: 10.82

Problem: Look up and report measured pEC50 (GLP-1 Receptor (Homo sapiens)) for the following compound: CCn1cncc1Cn1c(/C=C(\C)C(=O)O)cnc1CN1CCC(c2cccc(OCc3ccc(Cl)cc3F)n2)CC1 [Compound 219]
Solution: 11.16

Problem: Look up and report measured pEC50 (GLP-1 Receptor (Homo sapiens)) for the following compound: CC1(c2ccc(Cl)cc2F)Oc2cccc(C3CCN(Cc4ncc(/C=C/C(=O)O)n4CCOC(F)F)CC3)c2O1 (centres unmarked) [Compound 168]
Solution: 10.34

Problem: Look up and report measured pEC50 (GLP-1 Receptor (Homo sapiens)) for the following compound: O=C(O)C1CC1c1cnc(CN2CCC(c3cccc(OCc4ccc(Cl)cc4F)n3)CC2)n1C[C@@H]1CCO1 (some centres unmarked) [Compound 114a]
Solution: 8.03

Problem: Look up and report measured pEC50 (GLP-1 Receptor (Homo sapiens)) for the following compound: C/C(=C\c1cnc(CN2CCC(c3cccc4c3O[C@](C)(c3ccc(Cl)cc3)O4)CC2)n1C[C@@H]1CCO1)C(=O)O [Compound 134b]
Solution: 7.77

Problem: Look up and report measured pEC50 (GLP-1 Receptor (Homo sapiens)) for the following compound: O=C(O)/C=C/c1nnc(CN2CCC(c3cccc(OCc4ccc(Cl)cc4F)n3)CC2)n1C[C@@H]1CCO1 [Compound 225a]
Solution: 9.59
